TESTED SYSTEM: Adrenergic receptor alpha-1 (Homo sapiens, UniProt P35348+P25100+P35368)
PROCEDURE DETAILS: In vitro blocking activity against alpha adrenergic receptor, isolated from rabbit aortic strip
Format: protein assay, Oryctolagus cuniculus
READOUT: pA2

COMPOUND	READOUT	RESULT
Cc1ccccc1N1CCN(CC(O)c2ccc(O)c(C(N)=O)c2)CC1.Cl.Cl (stereo unspecified)	pA2	7.57
Cl.NC(=O)c1cc(C(O)CN2CCN(Cc3ccccc3)CC2)ccc1O (stereo unspecified)	pA2	5.13
COC(=O)c1cc(C(O)CNC(C)CCc2ccc3c(c2)OCO3)ccc1O.Cl (stereo unspecified)	pA2	5.73
Cc1ccccc1N1CCN(CC(O)c2ccc(O)c(C3N=NN=N3)c2)CC1 (stereo unspecified)	pA2	7.56
Cl.NC(=O)c1cc(C(O)CN2CCN(c3cccc(C(F)(F)F)c3)CC2)ccc1O (stereo unspecified)	pA2	6.33
